// Kd lookup, one value per entry
- SYSTEM UNDER TEST: T1, 14-3-3σ, full-length, recombinant (human, UniProt P31947 1-248)
- T1 sequence (looked up): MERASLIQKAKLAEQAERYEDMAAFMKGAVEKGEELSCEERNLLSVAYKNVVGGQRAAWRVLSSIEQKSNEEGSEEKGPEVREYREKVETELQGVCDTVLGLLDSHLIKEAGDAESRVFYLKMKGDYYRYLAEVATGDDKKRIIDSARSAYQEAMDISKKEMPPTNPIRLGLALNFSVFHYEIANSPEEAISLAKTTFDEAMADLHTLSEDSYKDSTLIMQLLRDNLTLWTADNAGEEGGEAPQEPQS
- ASSAY METHOD TEXT: fluorescence polarisation
[ ]: non-standard residue; d: D form. fluorescein = fluorescein label on the N-terminus; pT = C[C@@H](OP(=O)(O)O)[C@H](N)C(=O)O; pS = N[C@@H](COP(=O)(O)O)C(=O)O
Record the value in nM, omitting the unit from your answer.

The binder identified as fluorescein-YSGH[pS]L-OH [GpIBα-ctp, fluorescein-labeled hexaphosphopeptide YSGHpSL-COOH] registered its Kd at 1690

The binder identified as fluorescein-ARSW[pT]F-OH [IRL9-ctp, fluorescein-labeled hexaphosphopeptide ARSWpTF-COOH] registered its Kd at 1540

The binder identified as fluorescein-RKKR[pS]V-OH [Task3-ctp, fluorescein-labeled hexaphosphopeptide RKKRpSV-COOH] registered its Kd at 100

The binder identified as fluorescein-ALRRQ[pT]-OH [p27Kip1-ctp, fluorescein-labeled hexaphosphopeptide ALRRQpT-COOH] registered its Kd at 39900

The binder identified as fluorescein-KRSV[pS]L-OH [GPR15-ctp, fluorescein-labeled hexaphosphopeptide KRSVpSL-COOH] registered its Kd at 1100
